- Test system: TEC
- CONDITION_CONTEXT: concentration: 1 μM,replicates: in singlicate; n = 1;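 further: KINOMEscan kinase panel screen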
ASSAY_ENDPOINT: %Inh (%)
Just the number please, in %, no unit attached.

Sample answers from the record:
[[record]]
compound = "NC(=O)Nc1sc(-c2ccc(F)cc2)cc1C(N)=O [GW789449]"
recorded_number = 1

[[record]]
compound = "Cc1ccn2nc(-c3ccc(F)cc3)c(-c3ccncc3)c2c1.Cl [GW457859]"
recorded_number = 0

[[record]]
compound = "COc1cc2ncn(-c3cc(OCC4CCCCC4)c(C(N)=O)s3)c2cc1OC [GSK204559]"
recorded_number = 13


# get_value(readout='%Inh', item= O=C(NCC1CC1)c1ccc(-c2cc(C(=O)NC3CC3)ccc2F)cc1 [GW810445] )
2

Try the compound COc1cc(Nc2nccc(N3CCC(NC(=O)c4cccc(C#N)c4)C3)n2)cc(OC)c1OC (stereo not shown) [GSK1379751]
0

Try the compound O=C1NCCc2[nH]c(-c3ccncc3)cc21
0

Try the compound CNC(=O)c1ccccc1Nc1nc(Nc2cccc(CS(C)(=O)=O)c2)ncc1C.O=CO [GSK1520489]
99.9

Try the compound CCOC(=O)N1CCC(n2cnc(-c3ccc(F)cc3)c2-c2ccnc(N)n2)CC1 [SB-219952]
0

Try the compound CCn1c(-c2nonc2N)nc2cncc(Br)c21 [SB-738004]
0

Try the compound CC(C(=O)NC1CCN(c2ccnc(Nc3ccc(F)cc3)n2)C1)c1ccc(Cl)cc1 (stereo not shown) [GSK1379713]
0

Try the compound O=C(NOCC1CC1)c1cc(Br)c(F)c(F)c1Nc1ccc(I)cc1Cl
0

Try the compound O=c1[nH]cc(-c2ccc(O)cc2)c2sc(-c3ccncc3)cc12 [GSK1033723]
0

Try the compound CN(c1ccccc1CNc1nc(Nc2ccc3c(c2)CC(=O)N3)ncc1C(F)(F)F)S(C)(=O)=O
0

Try the compound c1ccc(Oc2ccc(Nc3ccnc4ccc(-c5ccccn5)cc34)cc2)cc1 [GW407034]
78

Try the compound CN1CCN(CCNc2nc3cc(Oc4ccc(NC(=O)Nc5cc(C(F)(F)F)ccc5F)cc4)ccc3[nH]2)CC1.Cl.Cl [GW768504]
0

Try the compound C[C@@H]1CNc2c(sc3ccc4nc(-c5ccncc5)ccc4c23)C(=O)N1
0

Try the compound COc1cccc(OC)c1C(=O)Nc1cccc(-c2nn3ccccc3c2-c2ccnc(Nc3cccc(F)c3)n2)c1 [GSK361065]
26

Try the compound COc1cc2c(Nc3ccc(NC(=O)c4ccccc4)cc3)ncnc2cc1OCCCN1CCOCC1 [GSK301329]
0

Try the compound FC(F)(F)c1cc(Br)cc(Nc2nccc(-c3cnn4ncccc34)n2)c1 [GW810578]
0

====

- Test system: CDKL1
- CONDITION_CONTEXT: concentration: 1 μM,replicates: in singlicate; n = 1
Catalogue of %Inh readings, one per entry.
Just the number please, in %, no unit attached.

[[record]]
molecule = "CC(C)S(=O)(=O)N1CCN(Cc2ccc3c(c2)nc(NC(=O)c2ccsc2)n3C[C@H](O)c2ccccc2)CC1"
system_tested = "CDKL1"
assay_endpoint = "%Inh"
value_unit = "%"
recorded_number = 8

[[record]]
molecule = "COC(=O)c1cccc(NC(=O)NC2CCN(c3ccnc(Nc4cc(OC)c(OC)c(OC)c4)n3)C2)c1 (centres unmarked)"
system_tested = "CDKL1"
assay_endpoint = "%Inh"
value_unit = "%"
recorded_number = 14

[[record]]
molecule = "COc1cc2ncn(-c3cc(OCC4CCCCC4)c(C(N)=O)s3)c2cc1OC"
system_tested = "CDKL1"
assay_endpoint = "%Inh"
value_unit = "%"
recorded_number = 0


# get_value(readout='%Inh', item= c1ccc(Oc2ccc(Nc3ccnc4ccc(-c5ccccn5)cc34)cc2)cc1 )
9

Try the molecule OCCn1cc(-c2cnc3nnn(Cc4ccc5ncccc5c4)c3n2)cn1
0

Try the molecule CC(C(=O)NC1CCN(c2ccnc(Nc3ccc(F)cc3)n2)C1)c1ccc(Cl)cc1 (centres unmarked)
0

Try the molecule CC(=O)c1c(-c2ccncc2)[nH]c(-c2ccncc2)c1C
0

Try the molecule C[C@@H](Oc1cc(-n2cnc3cc(-c4ccncc4)ccc32)sc1C(N)=O)c1ccccc1Cl
21

Try the molecule CN(c1ccc2c(c1)nc(NCc1ccc(F)cc1)n2C)c1ccnc(Nc2ccc(CS(C)(=O)=O)cc2)n1.Cl
30

Try the molecule Cn1ccc2ncnc(Oc3ccc(NC(=O)Nc4cc(C(C)(C)C)on4)c(Cl)c3)c21
48

Try the molecule CC(C)c1nc(-c2cccc(NS(=O)(=O)c3ccccc3)c2)c(-c2ccnc(Nc3ccc4c(c3)CN(C)CC4)n2)s1
0

====

- System: NEK7
- CONDITION_CONTEXT: concentration: 1 μM,replicates: in singlicate; n = 1
Catalogue of %Inh readings, one per entry.
Just the number please, in %, no unit attached.

Sample answers from the record:
[[record]]
chemical_structure = "CN1CCN(CCNc2nc3cc(Oc4ccc(NC(=O)Nc5cc(C(F)(F)F)ccc5F)cc4)ccc3[nH]2)CC1.Cl.Cl"
value_unit = "%"
recorded_number = 0

[[record]]
chemical_structure = "CN(c1ccccc1CNc1nc(Nc2ccc3c(c2)CC(=O)N3)ncc1C(F)(F)F)S(C)(=O)=O"
value_unit = "%"
recorded_number = 64

[[record]]
chemical_structure = "O=C(Nc1n[nH]c2cc(-c3ccco3)ccc12)C1CC1"
value_unit = "%"
recorded_number = 0

[[record]]
chemical_structure = "Nc1nccc(-c2ccc3c(N)n[nH]c3c2)n1"
value_unit = "%"
recorded_number = 3

[[record]]
chemical_structure = "O=C(NCC1CC1)c1ccc(-c2cc(C(=O)NC3CC3)ccc2F)cc1"
value_unit = "%"
recorded_number = 0

[[record]]
chemical_structure = "Cc1ccn2nc(-c3ccc(F)cc3)c(-c3ccncc3)c2c1.Cl"
value_unit = "%"
recorded_number = 0

[[record]]
chemical_structure = "Cn1ccc2ncnc(Oc3ccc(NC(=O)Nc4cc(C(C)(C)C)on4)c(Cl)c3)c21"
value_unit = "%"
recorded_number = 0

[[record]]
chemical_structure = "C[C@@H](Oc1cc(-n2cnc3cc(-c4cnn(C)c4)ccc32)sc1C(N)=O)c1ccccc1Cl"
value_unit = "%"
recorded_number = 71


Please find the next compound below.
# get_value(readout='%Inh', item= Cn1ccc2ncnc(Oc3ccc(NC(=O)Nc4ccnc(C(F)(F)F)c4)c(Cl)c3)c21 )
0

====

Catalogue of %Inh readings, one per entry.
- System: PIP5K1A
- CONDITION_CONTEXT: concentration: 1 μM,replicates: in singlicate; n = 1
Just the number please, in %, no unit attached.

[[record]]
molecule = "Cl.Nc1n[nH]c2cc(-c3ccccn3)ccc12 [GSK2189892]"
recorded_number = 0


# get_value(readout='%Inh', item= Cn1ccc2ncnc(Oc3ccc(NC(=O)Nc4cnn(C(C)(C)C)c4)c(Cl)c3)c21 )
17

Try the molecule Cc1ccc(C(=O)Nc2ccc(Oc3ccc4nc(NC(=O)C5CC5)cn4c3)c(F)c2)c(=O)n1-c1ccccc1
26

Try the molecule Cl.c1ccc(Oc2ccc(Nc3ccnc4cc(-c5ccc(CN6CCNCC6)o5)ccc34)cc2)nc1 [GW567142]
0

Try the molecule CCNCC(Cc1ccccc1)NC(=O)c1cc(Br)c(-c2ccnc3[nH]ccc23)s1.Cl.Cl (centres unmarked) [GSK1383280]
55

Try the molecule Cc1cccc2c(-c3ccncc3)c(-c3ccc(F)cc3)nn12.Cl [GW461487]
13

Try the molecule COc1cc(Nc2nccc(N3CCC(NC(=O)c4cccc(C#N)c4)C3)n2)cc(OC)c1OC (centres unmarked) [GSK1379751]
0

Try the molecule NC(=O)Nc1sc(-c2ccc(F)cc2)cc1C(N)=O [GW789449]
93.9

====

- Tested on: MAP4K2
- CONDITION_CONTEXT: concentration: 1 μM,replicates: in singlicate; n = 1
Catalogue of %Inh readings, one per entry.
Just the number please, in %, no unit attached.

[[record]]
molecule = "CCn1c(-c2nonc2N)nc2cncc(CNC3CCNCC3)c21.Cl [SB-747651]"
value_unit = "%"
recorded_number = 0

[[record]]
molecule = "C[C@@H]1CCN(C(=O)N2CCCC2)C[C@@H]1N(C)c1ncnc2[nH]ccc12"
value_unit = "%"
recorded_number = 0

[[record]]
molecule = "O=C(Nc1ccc(Oc2ccc3nc(NC(=O)C4CC4)cn3n2)c(F)c1)c1cccn(-c2ccccc2)c1=O"
value_unit = "%"
recorded_number = 0


Form: Entry = CCN1CCN(CCCC(=O)Nc2n[nH]c3nc(-c4ccc(O)cc4)c(Br)cc23)CC1 [SB-731579] | System = MAP4K2 | %Inh = ____
0

Try the molecule Cc1ccc(Nc2ccnc(Nc3ccc4c(c3)CS(=O)(=O)C4)n2)cc1O.Cl [GW579362]
22

Try the molecule Cl.Cl.NC[C@H](CC1CCCCC1)NC(=O)c1ccc(-c2ccnc3[nH]ccc23)s1 [GSK1581428]
95.7

Try the molecule O=C1NCCc2[nH]c(-c3ccncc3)cc21
52

Try the molecule O=C(NOCC1CC1)c1cc(Br)c(F)c(F)c1Nc1ccc(I)cc1Cl
0

Try the molecule CCn1c(-c2nonc2N)nc2cncc(Br)c21 [SB-738004]
40
